molecular target: Histone acetyltransferase KAT2B (Homo sapiens, UniProt Q92831); test: Inhibition of human recombinant histone acetyltransferase PCAF assessed as CoA-SH activity preincubated for 15 mins by CPM fluorescent assay
Sequence (Q92831 whole entry): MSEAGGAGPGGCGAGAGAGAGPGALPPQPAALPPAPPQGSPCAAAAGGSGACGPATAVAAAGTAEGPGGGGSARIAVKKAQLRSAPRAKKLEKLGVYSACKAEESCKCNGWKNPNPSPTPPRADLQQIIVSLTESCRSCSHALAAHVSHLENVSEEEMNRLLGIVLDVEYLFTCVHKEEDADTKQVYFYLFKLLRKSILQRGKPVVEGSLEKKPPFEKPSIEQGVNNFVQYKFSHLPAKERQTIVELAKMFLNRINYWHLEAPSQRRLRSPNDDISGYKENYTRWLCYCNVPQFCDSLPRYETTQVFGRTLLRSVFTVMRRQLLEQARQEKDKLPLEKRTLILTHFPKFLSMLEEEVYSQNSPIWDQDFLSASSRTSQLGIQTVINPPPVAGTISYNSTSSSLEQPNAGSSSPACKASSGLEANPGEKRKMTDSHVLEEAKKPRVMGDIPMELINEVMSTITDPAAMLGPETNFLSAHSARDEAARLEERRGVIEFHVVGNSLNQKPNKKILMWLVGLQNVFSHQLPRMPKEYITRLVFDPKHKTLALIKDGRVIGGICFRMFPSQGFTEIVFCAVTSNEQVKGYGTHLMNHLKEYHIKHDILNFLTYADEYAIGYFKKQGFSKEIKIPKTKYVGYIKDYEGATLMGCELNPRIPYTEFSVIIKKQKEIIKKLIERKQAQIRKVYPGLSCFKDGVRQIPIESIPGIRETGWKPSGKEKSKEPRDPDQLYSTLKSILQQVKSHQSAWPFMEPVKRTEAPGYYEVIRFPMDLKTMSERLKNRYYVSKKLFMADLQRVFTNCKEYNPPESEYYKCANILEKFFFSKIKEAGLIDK
pIC50: −log10 of the molar value.
pIC50 overview

Consider the following illustrative entries.
CCn1sc(Cl)c(C)c1=O :: < 5.00
COC(=O)CCn1c(=O)c(Cl)c(Cl)[s+]1[O-] (stereo not drawn) :: < 5.00

Next compound, please.
Record CCCCCCCCCCCCSc1c(Cl)c(=O)n(CCC(=O)OC)[s+]1[O-] (stereo not drawn) , field pIC50: < 5.00

====

test system: HepG2; assay: Growth inhibition of human HepG2 cells after 48 hrs by crystal violet assay; format: functional, cell-based; settings: HepG2, 48 h
The following compounds are listed with their measured IC50 values.
Only the number, expressed in µM, is required.

Answered cases to consult:
COC(=O)CCn1sc(Cl)c(C)c1=O :: 8.6
CCn1sc(Cl)c(C)c1=O :: 9.1
COC(=O)CCn1sc(Cl)cc1=O :: 24
CCn1sc(Cl)c(Cl)c1=O :: 12
CCn1sc(Cl)cc1=O :: 12
COC(=O)CCn1sc(Cl)c(Cl)c1=O :: 16

// recorded IC50 for CC(C)(C)n1c(=O)cc(Cl)[s+]1[O-] (stereo unspecified) : 27
